Reference source: patent US9375004B2

Assay: logP by HPLC on reversed-phase column (EEC Directive 79/831 Annex V.A8)
Conditions: HPLC on reversed-phase column (C 18), EEC Directive 79/831 Annex V.A8
Readout Kind: logP

Study these solved cases before continuing.
| Smiles Input | logP |
| --- | --- |
| Cn1nc(C(F)F)c(C(=O)Nc2ccccc2-c2ccc(F)cc2)c1Cl | 3.40 |
| Cn1nc(C(F)F)c(C(=O)Nc2cccc3c2OCCO3)c1F | 2.44 |

Asked: Give the measured logP of "Cn1nc(C(F)F)c(C(=O)Nc2cccc3c2OCCO3)c1Cl" .
Given back: 2.70

----------
Assay: logP by HPLC on reversed-phase column (EEC Directive 79/831 Annex V.A8)
Settings: HPLC on reversed-phase column (C 18), EEC Directive 79/831 Annex V.A8
Readout Kind: logP
API doc: respond with a numeric literal and nothing else, no unit.

| Compound | logP |
| --- | --- |
| Cn1nc(C(F)F)c(C(=O)Nc2cccc(OCC(C)(C)C)c2)c1F [compound 182] | 3.96 |
| Cc1cc(C)cc(-c2ccccc2NC(=O)c2c(C(F)F)nn(C)c2F)c1 [compound 81] | 4.11 |

Asked: Give the measured logP of Cn1nc(C(F)F)c(C(=O)Nc2ccc(F)cc2-c2ccc(F)cc2)c1F [Example 77] .
Given back: 3.16

Asked: Give the measured logP of Cn1nc(C(F)F)c(C(=O)Nc2ccc(F)cc2-c2ccc(C(F)(F)F)c(F)c2)c1F [Example 150] .
Given back: 3.66

Asked: Give the measured logP of Cn1nc(C(F)F)c(C(=O)Nc2ccccc2-c2ccc(F)cc2)c1F [Example 80] .
Given back: 3.20

Asked: Give the measured logP of CC1CC(C)(C)c2cccc(NC(=O)c3c(C(F)F)nn(C)c3Cl)c21 (stereo not drawn) [Example 65] .
Given back: 4.04

Asked: Give the measured logP of Cn1nc(C(F)F)c(C(=O)Nc2cccc3c2CCC3)c1Cl [Example 55] .
Given back: 3.19

Asked: Give the measured logP of Cn1nc(C(F)F)c(C(=O)Nc2cc(Cl)ccc2CCC(C)(C)C)c1F [compound 18] .
Given back: 4.51

Asked: Give the measured logP of Cn1nc(C(F)F)c(C(=O)Nc2cccc(OCC(F)(F)F)c2)c1Cl [compound 187] .
Given back: 3.06

Asked: Give the measured logP of CC(C)CCc1cc(F)ccc1NC(=O)c1c(C(F)F)nn(C)c1F [Example 10] .
Given back: 3.67

----------
Property: Efficacy; scope: individual molecules
Test system: Fusarium nivale (var. majus)
Assay: Fusarium nivale (var. majus)-test (wheat)/preventive
Settings: 500 ppm, preventive, evaluated 5 days after inoculation
All answers are understood in %, so give the number only.

Study these solved cases before continuing.
| Molecule | Efficacy, % |
| --- | --- |
| Cn1nc(C(F)F)c(C(=O)Nc2c(F)cccc2-c2ccc(Cl)c(Cl)c2)c1F [Example 115] | 86 |
| CC(C)C1C2CCC1c1c(NC(=O)c3c(C(F)F)nn(C)c3Cl)cccc12 (stereo not drawn) [Example 67] | 100 |
| CCCCCc1ccccc1NC(=O)c1c(C(F)F)nn(C)c1Cl [Example 12] | 86 |

Here is another molecule to look at.
Asked: Give the measured Efficacy of Cn1cc(C(=O)Nc2ccccc2C2CC2C2CC2)c(C(F)F)n1 (stereo not drawn) [2.34 from WO-2003/074491, reference compound] .
Given back: 57
